The values you see were collected from patent US20070149508A1.

experimental system: Abl (T315I) (Homo sapiens, UniProt P00519, T315I)
Construct: purchased Upstate
run description: Abl (T315I) Kinase Assay (KinaseGlo luminescent detection of residual ATP)
Assay type: biochemical
test context: Abl (T315I) IC50 (nM), Abl (T315I) (Upstate, 17 ng/well), Abltide 100 uM, ATP 500 nM, 60 minutes at 37° C.
quantity measured: IC50 (nM)

Use these answered entries as a reference point.
>  <smi>
O=S(=O)(c1ccc(Nc2ncc(/C=C/c3ccc4[nH]ncc4c3)cn2)cc1)C1CCNCC1

>  <unit text>
nM

>  <recorded measurement>
262

$$$$
>  <smi>
NC(=O)CN(C1CCNCC1)S(=O)(=O)c1ccc(Nc2ncc(/C=C/c3ccc4nc(N)sc4c3)cn2)cc1

>  <unit text>
nM

>  <recorded measurement>
96

$$$$
>  <smi>
O=S(=O)(c1ccc(Nc2ncc(/C=C/c3cccc4[nH]ncc34)cn2)cc1)N(CCO)C1CCNCC1

>  <unit text>
nM

>  <recorded measurement>
251

$$$$

A. Nc1nc2ccc(/C=C/c3cnc(Nc4ccc(S(=O)(=O)NCCO)c(N5CCNCC5)c4)nc3)cc2s1
B. O=S(=O)(NCCCO)c1ccc(Nc2ncc(/C=C/c3cccc(O)c3)cn2)cc1
Higher IC50: A or B ? Label of pick, please.
A
(A: 354 nM, B: 112 nM)
